Reported IC50 values, UniProt Q05941.
Sequence (Q05941 23-502): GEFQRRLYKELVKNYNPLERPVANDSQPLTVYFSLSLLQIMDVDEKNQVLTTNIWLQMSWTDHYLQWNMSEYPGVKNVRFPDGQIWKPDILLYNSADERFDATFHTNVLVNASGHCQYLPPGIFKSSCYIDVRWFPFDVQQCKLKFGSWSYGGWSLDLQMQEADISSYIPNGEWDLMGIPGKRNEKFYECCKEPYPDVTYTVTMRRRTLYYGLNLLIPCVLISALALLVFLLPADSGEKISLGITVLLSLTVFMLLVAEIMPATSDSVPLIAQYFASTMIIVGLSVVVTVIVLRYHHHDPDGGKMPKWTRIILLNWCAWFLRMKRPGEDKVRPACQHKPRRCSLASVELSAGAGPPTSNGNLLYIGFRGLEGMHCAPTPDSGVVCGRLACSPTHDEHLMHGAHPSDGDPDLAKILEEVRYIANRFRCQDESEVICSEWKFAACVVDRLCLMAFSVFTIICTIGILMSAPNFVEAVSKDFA
metric: IC50

> print(dat)
                                   compound  measurement
1  c1ccc(-c2ccc(N3CCN4CCC3CC4)cc2)cc1 [Compound 34]        24 nM
2  c1csc(-c2ccc(N3CCN4CCC3CC4)nn2)c1 [Compound 4]        44 nM
3  c1c[se]c(-c2ccc(N3CCN4CCC3CC4)nn2)c1 [Compound 5]       6.5 nM
4  c1cc(-c2ccc(N3CCN4CCC3CC4)nn2)cs1 [Compound 1]        38 nM
5  c1cc(-c2ccc(N3CCN4CCC3CC4)nn2)co1 [Compound 7]        22 nM
